experiment: Cytotoxicity by MTT assay against T47D cells; conditions: human, Cytotoxicity against T47D cells IC50 (nM) Normoxic, T47D cells, normoxic conditions, MTT assay
Please provide measured IC50 for the entries that follow.

Value lookup for IC50; key = COc1ccc2c3c(c4cc(OC)c(OC)cc4c2c1)CN1CCC[C@H]1[C@@H]3O
> 500 nM

Value lookup for IC50; key = COc1ccc2c3c(c4cc(OC)c(OC)cc4c2c1)CN1CCC[C@H]1C3
> 600 nM

Value lookup for IC50; key = COc1cc2c3c(c4cc(O)c(OC)cc4c2cc1O)CC1CCCN1C3 (stereo not shown) [compound 4, 2-hydroxyl deoxytylophorinidine]
> 500 nM

New cases:
Value lookup for IC50; key = COc1ccc2c3c(c4cc(OC)c(OC)cc4c2c1)CN1CCC[C@H]1[C@H]3O
> 500 nM

* * *

assay: Cytotoxicity by MTT assay against T47D cells; details: human, T47D cells, Cytotoxicity against T47D cells IC50 (nM) Hypoxic, hypoxic conditions, MTT assay
Please provide measured IC50 for the entries that follow.

Value lookup for IC50; key = COc1ccc2c3c(c4cc(OC)c(O)cc4c2c1)CN1CCC[C@H]1[C@H]3O [compound 14, tylophorinidine]
> 100 nM

Value lookup for IC50; key = COc1ccc2c3c(c4cc(OC)c(OC)cc4c2c1)CN1O[C@@H](CC(C)=O)CC[C@H]1[C@H]3O (single isomer, unassigned) [compound 3]
> 20000 nM

Value lookup for IC50; key = COc1cc2c3c(c4cc(O)c(OC)cc4c2cc1O)C(O)C1CCCN1C3 (stereo not drawn) [compound 5, 2-hydroxyl tylophorinidine]
> 250 nM

Value lookup for IC50; key = COc1cc2c3c(c4ccc(O)cc4c2cc1O)[C@H](O)[C@@H]1CCCN1C3 [compound 13, 3-O-demethyl tylophorinidine]
> 250 nM

Value lookup for IC50; key = COc1cc2c(cc1O)c1c(c3cc(OC)c(OC)cc32)C[N@+]2([O-])CCC[C@H]2[C@@H]1O [compound 8, 10R-2-hydroxyl tylophorinine N-oxide]
> 1000 nM

As a next step, examine the molecule that follows.
Value lookup for IC50; key = COc1cc2c3c(c4cc(OC)c(OC)cc4c2cc1OC)[C@H](O)[C@@H]1CCC[N@@+]1([O-])C3 [compound 10]
> 2000 nM

* * *

Please provide measured IC50 for the entries that follow.
experiment: Cytotoxicity by MTT assay against T47D cells; conditions: human, T47D cells, Cytotoxicity against T47D cells IC50 (nM) Hypoxic, hypoxic conditions, MTT assay

Worked examples follow.
Value lookup for IC50; key = COc1cc2c3c(c4cc(OC)c(OC)cc4c2cc1OC)C[N@+]1([O-])CCC[C@H]1C3 [compound 11, 10R, 13aS-tylophorine N-oxide]
> 2000 nM

Value lookup for IC50; key = COc1cc2c3c(c4ccc(O)cc4c2cc1O)[C@@H](O)[C@@H]1CCC[N@@+]1([O-])C3
> 200 nM

// for each compound in input: emit IC50
1. COc1cc2c3c(c4cc(O)c(OC)cc4c2cc1O)[C@@H](O)[C@H]1CCC[N@+]1([O-])C3
2. COc1cc2c3c(c4ccc(O)cc4c2cc1OC)[C@H](O)[C@@H]1CCCN1C3

["> 1000 nM", "> 250 nM"]

* * *

experiment: Cytotoxicity by MTT assay against T47D cells; details: human, Cytotoxicity against T47D cells IC50 (nM) Hypoxic, T47D cells, hypoxic conditions, MTT assay
parameter: IC50

Worked examples follow.
Value lookup for IC50; key = COc1ccc2c3c(c4cc(OC)c(OC)cc4c2c1)CN1CCC[C@H]1[C@@H]3O
> 500 nM

Value lookup for IC50; key = COc1cc2c(cc1O)c1c(c3cc(OC)c(OC)cc32)CN2CCC[C@@H]2[C@@H]1O [compound 9, 13aR-2-hydroxyl tylophorinine]
> 2000 nM

Value lookup for IC50; key = COc1ccc2c3c(c4cc(OC)c(OC)cc4c2c1)CN1CCC[C@H]1[C@H]3O
> 12500 nM

// for each compound in input: emit IC50
1. COc1cc2c3c(c4cc(O)c(OC)cc4c2cc1O)CC1CCCN1C3 (stereo not shown) [compound 4, 2-hydroxyl deoxytylophorinidine]
2. COc1ccc2c3c(c4cc(OC)c(OC)cc4c2c1)C[N@+]1([O-])CCC[C@H]1C3 [compound 12, 10R-deoxytylophorinine N-oxide]
3. COc1cc2c3c(c4cc(OC)c(OC)cc4c2cc1OC)CN1CCC[C@H]1C3 [compound 19, 13aS-tylophorine]
4. COc1ccc2c3c(c4cc(OC)c(OC)cc4c2c1)CN1CCC[C@H]1C3

> 500 nM
> 2000 nM
> 2000 nM
> 15000 nM
